Test system: Sporothrix schenkii
assay method text: Antifungal activity in vitro, resazurin growth inhibition: Sporothrix schenkii (B62482)
Format: cell-based
// values below are reported Inf. A: Sporothrix schenkii B62482, pIC50

// known answers, use as guide
COc1cccc2cc(C3NCc4ccc(Cl)cc4-n4cccc43)oc12.Cl (racemic) [Compound 42] : <4.19
COc1cccc2cc(C3=NCc4c(Cl)cccc4-n4cccc43)oc12 [Compound 141] : <4.19
CCc1ccc(C2NCc3c(Cl)cccc3-n3cccc32)cn1.Cl (racemic) [Compound 14] : <4.19

Now let's try a different one.
query: Which Inf. A: Sporothrix schenkii B62482, pIC50 value belongs to Clc1cc(Cl)c2c(c1)-n1cccc1C(c1cc3ccccc3s1)=NC2 [Compound 168] ?
result: 6.22

###

System: Candida parapsilosis
assay method text: Antifungal activity in vitro, resazurin growth inhibition: Candida parapsilosis (B66126)
Format: cell-based
assay metric: Inf. D: Candida parapsilosis B66126, pIC50

c1ccc2c(c1)CN=C(c1ccc3ncsc3c1)c1cccn1-2 [Compound 182] : 4.58
Br.Clc1cccc2c1CNC(c1ccncc1)c1cccn1-2 (racemic) [Compound 21] : <4.19
Clc1cccc2c1CN=C(c1cnc3occc3c1)c1cccn1-2 [Compound 161] : <4.19
Clc1cc(Cl)c2c(c1)-n1cccc1C(c1cc3ccccc3s1)=NC2 [Compound 168] : <4.19
COc1ccc2oc(C3NCc4c(Cl)cccc4-n4cccc43)cc2c1.Cl (racemic) [Compound 44] : <4.19
Cn1nnc2ccc(C3=NCc4c(Cl)cccc4-n4cccc43)cc21 [Compound 110] : 4.58
Fc1cccc2c1CN=C(c1ccc3scnc3c1)c1cccn1-2 [Compound 189] : <4.19
Clc1cccc2c1CN=C(c1ccc3scnc3c1)c1cccn1-2 [Compound 188] : 4.90
Clc1cccc2c1CN=C(c1ccncc1)c1cccn1-2 [Compound 198] : <4
Cl.c1ccc2c(c1)CNC(c1cc3ccccc3o1)c1cccn1-2 (racemic) [Compound 29] : <4.19

query: Please provide the recorded Inf. D: Candida parapsilosis B66126, pIC50 for Clc1cccc2c1CN=C(c1ccc3ccoc3c1)c1cccn1-2 [Compound 150] , tested on Candida parapsilosis.
result: 4.68

query: One more molecule: Cc1ccc2oc(C3=NCc4c(Cl)cc(Cl)cc4-n4cccc43)cc2c1 [Compound 136]
result: <4.19

query: One more molecule: Cl.Fc1ccc2oc(C3NCc4c(Cl)cc(Cl)cc4-n4cccc43)cc2c1 (racemic) [Compound 49]
result: <4.19

query: One more molecule: Cc1cccc2c1CN=C(c1ccc3ncsc3c1)c1cccn1-2 [Compound 183]
result: 5.31

query: One more molecule: Cc1ccc(Cl)c2c1-n1cccc1C(c1cc3ccccc3s1)=NC2 [Compound 169]
result: <4.19

query: One more molecule: Clc1ccc(C2=NCc3c(Cl)cccc3-n3cccc32)cn1 [Compound 77]
result: 4.69

query: One more molecule: Cc1cccc2c1-n1cccc1C(c1cc3ccccc3s1)NC2.Cl (racemic) [Compound 55]
result: <4.19

query: One more molecule: Cl.c1ccc2c(c1)CNC(c1cc3ccccc3s1)c1cccn1-2 (racemic) [Compound 52]
result: <4.19

###

Tested on: Trichophyton mentagrophytes
assay method text: Antifungal activity in vitro, resazurin growth inhibition: Trichophyton mentagrophytes (B70554)
Assay type: cell-based
// values below are reported Inf. G: Trichophyton mentagrophytes B70554, pIC50
Number, no unit, nothing else.

// known answers, use as guide
Clc1cc2cc(C3=NCc4c(Cl)cccc4-n4cccc43)ccc2o1 [Compound 155] : 6.82
CCc1cc(C2=NCc3c(Cl)cccc3-n3cccc32)on1 [Compound 63] : 5.58
Cl.FC(F)(F)c1ccc(C2NCc3c(Cl)cc(Cl)cc3-n3cccc32)cn1 (racemic) [Compound 19] : 4.57
CC(F)(F)c1ccc(C2=NCc3c(F)cc(F)cc3-n3cccc32)cn1 [Compound 86] : 5.59
Cc1cccc2c1CN=C(c1cc3cc(Cl)ccc3o1)c1cccn1-2 [Compound 122] : 5.55

query: Which Inf. G: Trichophyton mentagrophytes B70554, pIC50 value belongs to Cl.Clc1cccc2c1CNC(c1cc3ccccc3s1)c1cccn1-2 (racemic) [Compound 53] ?
result: 5.70

query: One more compound: CC(F)(F)c1ccc(C2=NCc3c(F)cccc3-n3cccc32)cn1 [Compound 83]
result: 5.88

query: One more compound: Clc1cccc2c1CN=C(c1cc3cccc(Cl)c3o1)c1cccn1-2 [Compound 126]
result: 6.34

###

Test system: Candida parapsilosis
assay method text: Antifungal activity in vitro, resazurin growth inhibition: Candida parapsilosis (B66126)
Format: cell-based
// values below are reported Inf. D: Candida parapsilosis B66126, pIC50
Number, no unit, nothing else.

// known answers, use as guide
Clc1cccc2c1CN=C(c1ccc3ccsc3c1)c1cccn1-2 : 5.80
Cc1ccc2cc(C3=NCc4ccccc4-n4cccc43)oc2c1 : 4.74
FC(F)(F)c1cc(C2=NCc3ccc(Cl)cc3-n3cccc32)ccn1 : 5.06

Now let's try a different one.
query: Which Inf. D: Candida parapsilosis B66126, pIC50 value belongs to `Clc1cc(C2=NCc3c(Cl)cccc3-n3cccc32)cnc1Cl` ?
result: 4.69

###

Test system: Candida parapsilosis
assay method text: Antifungal activity in vitro, resazurin growth inhibition: Candida parapsilosis (B66126)
Type: cell-based
assay metric: Inf. D: Candida parapsilosis B66126, pIC50

Cn1nc2ccc(C3=NCc4c(Cl)cccc4-n4cccc43)cc2n1 [Compound 108] : <4.49

query: Please provide the recorded Inf. D: Candida parapsilosis B66126, pIC50 for Cl.Clc1cccc2c1CNC(c1nc3ccccc3s1)c1cccn1-2 (racemic) [Compound 59] , tested on Candida parapsilosis.
result: <4.19

query: One more compound: Cl.Clc1cc(Cl)c2c(c1)-n1cccc1C(c1cc3ccccc3s1)NC2 (racemic) [Compound 56]
result: <4.19

query: One more compound: Cc1ccc2oc(C3=NCc4c(Cl)cccc4-n4cccc43)cc2c1 [Compound 134]
result: 4.54

###

Tested on: Sporothrix schenkii
assay method text: Antifungal activity in vitro, resazurin growth inhibition: Sporothrix schenkii (B62482)
Assay type: cell-based
assay metric: Inf. A: Sporothrix schenkii B62482, pIC50

query: Which Inf. A: Sporothrix schenkii B62482, pIC50 value belongs to Cl.Clc1cccc2c1CNC(c1ccc3scc(Cl)c3c1)c1cccn1-2 (racemic) [Compound 58] ?
result: <4.19

query: One more compound: Clc1cccc2c1CN=C(c1ccc3scc(Cl)c3c1)c1cccn1-2 [Compound 177]
result: <4.19

query: One more compound: Cc1ccc2cc(C3=NCc4c(F)cc(F)cc4-n4cccc43)ccc2n1 [Compound 114]
result: <4.19

query: One more compound: Br.Clc1ccc2c(c1)-n1cccc1C(c1ccncc1)NC2 (racemic) [Compound 23]
result: <4.19

query: One more compound: Clc1cccc2c1CN=C(c1ccc3nc[nH]c3c1)c1cccn1-2 [Compound 205]
result: <4

query: One more compound: Clc1cccc2c1CN=C(c1ccc3ccoc3c1)c1cccn1-2 [Compound 150]
result: 5.52

###

Tested on: Trichophyton mentagrophytes
assay method text: Antifungal activity in vitro, resazurin growth inhibition: Trichophyton mentagrophytes (B70554)
Assay type: cell-based
Tick fulfilled if Inf. G: Trichophyton mentagrophytes B70554, pIC50 is 6 or greater. Tick not fulfilled if Inf. G: Trichophyton mentagrophytes B70554, pIC50 is less than 6.

Clc1cccc2c1CN=C(c1cnc3occc3c1)c1cccn1-2 : not fulfilled

query: Kindly determine if Inf. G: Trichophyton mentagrophytes B70554, pIC50 recorded for `Cc1cccc2c1CN=C(c1ccc(C(F)(F)F)nc1)c1cccn1-2` is above or exactly 6.
result: not fulfilled

query: One more compound: `CC(C)n1ccc(C2=NCc3c(Cl)cccc3-n3cccc32)cc1=O`
result: fulfilled

query: One more compound: `CC(F)(F)c1ccc(C2=NCc3c(Cl)cc(F)cc3-n3cccc32)cn1`
result: fulfilled

query: One more compound: Cl.Fc1ccc2oc(C3NCc4c(Cl)cc(Cl)cc4-n4cccc43)cc2c1 (racemic)
result: not fulfilled

query: One more compound: `FC(F)(F)c1ccc(C2=NCc3c(Cl)cc(Cl)cc3-n3cccc32)cn1`
result: not fulfilled

###

// values below are reported Inf. D: Candida parapsilosis B66126, pIC50
System: Candida parapsilosis
assay method text: Antifungal activity in vitro, resazurin growth inhibition: Candida parapsilosis (B66126)
Type: cell-based
Procedure: The standard susceptibility screen is performed in 96-well plates (U-bottom, Greiner Bio-One). Serial dilutions (2-fold or 4-fold) of 20 mM compound stock solutions are made in 100% DMSO, followed by an intermediate dilution step in water. These serial dilutions (10 μl) are then spotted onto test-plates that can be stored in the dark at 4° C. for a maximum period of 2 weeks. An adequate broad dose-range is included with 64 μM as the highest in-test concentration. […]

query: Which Inf. D: Candida parapsilosis B66126, pIC50 value belongs to `Clc1cccc2c1-n1cccc1C(c1cc3ccccc3s1)=NC2` ?
result: 4.90

query: One more compound: `c1ccc2c(c1)CN=C(c1cc3ccccc3o1)c1cccn1-2`
result: 4.25

query: One more compound: COc1ccc2oc(C3NCc4c(Cl)cc(Cl)cc4-n4cccc43)cc2c1.Cl (racemic)
result: <4.19

query: One more compound: `CCc1ccc(C2=NCc3c(Cl)cc(Cl)cc3-n3cccc32)cn1`
result: <4.19
